conditions: in isopropanol, 273.15 K
recorded endpoint: solubility (mole fraction)
Please reply with the number alone, leaving off any unit.

Ask: # solubility (mole fraction) lookup, item COC(=O)[C@H](c1ccccc1Cl)N1CCc2sccc2C1.O=S(=O)(O)O
Reply: 0.00815

###

conditions: in acetone, 293.15 K
recorded endpoint: solubility (mole fraction)
Please reply with the number alone, leaving off any unit.

Ask: # solubility (mole fraction) lookup, item COC(=O)[C@H](c1ccccc1Cl)N1CCc2sccc2C1.O=S(=O)(O)O
Reply: 0.0474

###

conditions: in n-butanol, 303.15 K
recorded endpoint: solubility (mole fraction)

Ask: # solubility (mole fraction) lookup, item COC(=O)[C@H](c1ccccc1Cl)N1CCc2sccc2C1.O=S(=O)(O)O
Reply: 0.0869

###

details: in MTBE, 293.15 K
recorded endpoint: solubility (mole fraction)
Please reply with the number alone, leaving off any unit.

Ask: # solubility (mole fraction) lookup, item COC(=O)[C@H](c1ccccc1Cl)N1CCc2sccc2C1.O=S(=O)(O)O
Reply: 0.000101

###

conditions: in MTBE, 298.15 K
recorded endpoint: solubility (mole fraction)
Please reply with the number alone, leaving off any unit.

Ask: # solubility (mole fraction) lookup, item COC(=O)[C@H](c1ccccc1Cl)N1CCc2sccc2C1.O=S(=O)(O)O
Reply: 0.00011
